Across several publications, the following Ki results were reported for Renin (Homo sapiens).
- tested.system: Renin (Homo sapiens)
- Sequence (P00797 whole entry): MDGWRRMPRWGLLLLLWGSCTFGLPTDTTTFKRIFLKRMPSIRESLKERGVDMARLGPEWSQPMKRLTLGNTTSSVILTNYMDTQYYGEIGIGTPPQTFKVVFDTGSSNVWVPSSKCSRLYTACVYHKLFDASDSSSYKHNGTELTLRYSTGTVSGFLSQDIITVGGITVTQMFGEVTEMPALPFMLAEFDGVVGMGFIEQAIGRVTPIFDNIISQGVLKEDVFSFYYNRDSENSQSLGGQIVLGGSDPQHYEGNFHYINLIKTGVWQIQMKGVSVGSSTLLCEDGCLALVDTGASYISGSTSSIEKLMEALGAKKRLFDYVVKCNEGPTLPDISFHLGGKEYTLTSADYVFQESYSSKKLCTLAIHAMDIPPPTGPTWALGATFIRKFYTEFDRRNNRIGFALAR
quantity.name: Ki (µM)

CC(C)C[C@H](NC(=O)[C@H](Cc1cnc[nH]1)NC(=O)[C@H](Cc1ccccc1)NC(=O)[C@H]1CCCN1C(=O)[C@H](Cc1cnc[nH]1)NC(=O)[C@H]1CCCN1)C(=O)N[C@@H](CC(C)C)C(=O)N[C@H](C(=O)N[C@@H](Cc1ccc(O)cc1)C(=O)O)C(C)C : 42

a: COC(=O)[C@@H](Cc1ccccc1)NC(=O)[C@H](NC(=O)CC(O)CC(N)CC(C)C)C(C)C (stereo partly drawn)
b: CC(C)[C@]1(C)CC(=O)N(Cc2cccc(N3C[C@@H](c4ccccc4)CC3=O)c2)C(=N)N1
Which entry shows the lesser value of Ki here, a or b ? Please indicate the selected item by its label.
b
(b: 0.044 µM, a: 1600 µM)

====

- tested.system: Renin (Homo sapiens, UniProt P00797)
- Sequence (P00797 whole entry): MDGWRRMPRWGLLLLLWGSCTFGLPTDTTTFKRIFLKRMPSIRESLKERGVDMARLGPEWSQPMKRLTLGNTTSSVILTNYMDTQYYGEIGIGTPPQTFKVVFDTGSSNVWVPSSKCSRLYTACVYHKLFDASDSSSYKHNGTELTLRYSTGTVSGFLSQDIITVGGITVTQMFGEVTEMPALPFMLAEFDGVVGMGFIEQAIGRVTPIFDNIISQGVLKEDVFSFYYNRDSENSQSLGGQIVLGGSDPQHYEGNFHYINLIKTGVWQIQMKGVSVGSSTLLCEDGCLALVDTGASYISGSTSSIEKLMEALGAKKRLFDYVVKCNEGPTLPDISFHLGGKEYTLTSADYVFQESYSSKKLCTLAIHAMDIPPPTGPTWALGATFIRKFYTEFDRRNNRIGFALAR
pKi: −log10 of the molar value.
Across several publications, the following pKi results were reported for Renin (Homo sapiens, UniProt P00797).
quantity.name: pKi

CC(C)CNC(=O)[C@H](CCO)C[C@H](O)[C@H](Cc1ccccc1)NC(=O)C[C@H](NC(=O)CC(C)C)C(=O)O : 4.96

1: COC(=O)[C@H](Cc1ccccc1)NC(=O)[C@H](CC(C)C)NC(=O)CC(O)[C@H](CC(C)C)NC(=O)CCCNC(=O)[C@H](Cc1ccccc1)NC(=O)[C@@H]1CCCN1C(=O)CCCN (stereo partly drawn)
2: CC(C)[C@H](C[C@H](O)[C@H](COCc1ccccc1)NC(=O)c1cc(C(=O)N[C@H](C)c2ccccc2)cc(N(C)S(C)(=O)=O)c1)C(=O)N[C@H](C(=O)NCc1ccccc1)C(C)C
3: CC(C)[C@]1(C)CC(=O)N(Cc2cccc(C(=O)N[C@H](C)c3ccccc3)c2)C(=N)N1
4: C[C@H](CC(=O)NO)C(=O)N1CCC[C@H]1C(=O)O
5: CC(C)[C@]1(C)CC(=O)N(Cc2cccc(N3CC(c4cccc(Cl)c4)CC3=O)c2)C(=N)N1 (stereo partly drawn)
Rank descending by pKi. Your answer should be the labels, listed in the requested order.
5, 1, 2, 3, 4
(5: 8.70, 1: 8.05, 2: 7.68, 3: 7.07, 4: 6.22)

A: CC(C)C[C@H](NC(=O)C[C@H](O)[C@H](CC1CCCCC1)NC(=O)[C@H](Cc1c[nH]cn1)NC(=O)COc1ccccc1)C(=O)N[C@@H](Cc1ccccc1)C(N)=O
B: C[C@H](CCC(=O)O)C(=O)N1CCC[C@H]1C(=O)O
Among A and B , which shows a numerically higher pKi result? Please indicate the selected item by its label.
A
(A: 7.85, B: 6.10)

a: COC(=O)[C@H](Cc1ccccc1)NC(=O)[C@@H](NC(=O)[C@H](CC(C)C)NC(=O)[C@@H](O)CC(C)C)C(C)C
b: COC(=O)[C@H](Cc1ccccc1)NC(=O)[C@@H](NC(=O)[C@H](CC(C)C)NC(=O)[C@@H](O)c1ccccc1)C(C)C
Which entry shows the lesser value of pKi here, a or b ? Please indicate the selected item by its label.
b

P: CC(C)C[C@H](NC(=O)C[C@H](O)[C@H](Cc1ccccc1)NC(=O)[C@H](Cc1c[nH]cn1)NC(=O)COc1ccccc1)C(=O)N[C@@H](Cc1ccccc1)C(N)=O
Q: COC(=O)[C@H](Cc1ccccc1)NC(=O)[C@@H](NC(=O)[C@H](CC(C)C)NC(=O)[C@@H](O)[C@@H](N)CC(C)C)C(C)C
Which entry shows the lesser value of pKi here, P or Q ? Please indicate the selected item by its label.
Q
(Q: 3.02, P: 6.24)
